assay: Water solubility of cyclodextrin complexes with or without polysorbate 80 / polypowder
Format: physicochemical
applied_conditions: aqueous with cosolvent or surfactant or cyclodextrin, complexed with hpbcd, read-out: solubility when complexed with hpbcd
quantity_name: solubility

In plain terms, "O=C(NN1C(=O)[C@@H]2[C@@H]3C=C[C@@H]([C@H]4C[C@@H]34)[C@@H]2C1=O)c1ccc(C(F)(F)F)cc1" has a documented solubility of > 10000 µg/mL
